System: NCI-H226 lung
ASSAY EXPLANATION: NCI-60 one-dose screen, 48 h (100 = growth as untreated, 0 = no growth, -100 = all killed)
CONDITIONS USED: 10 µM unless noted
Compounds without any hit were thinned out: in the full panel of roughly 83,000, 20% have a hit.
Use growth to assign classes; range list: bottom: < 70%; middle: ≥ 70% and < 90%; top: ≥ 90%

Category of O=C(Nc1cnc(C(F)(F)F)cn1)c1cc(Cl)ccc1O :
bottom

Could you place NCCCOc1cc2ccccc2cc1C(=O)NCCCOc1cc2ccccc2cc1C(=O)Nc1ccc(Cl)cc1O in its proper category? Many thanks.
bottom

Entry COc1ccc([C@@H]2[C@@H](Cl)C(=O)N2c2cc(OC)c(OC)c(OC)c2)cc1C belongs to which category?
bottom

Could you tell me which band CCCCCCCCCCCCCCC(C(=O)OCC)C(=O)OCC belongs to?
top

Record Cc1ccc(NC(=O)c2[nH]c(SCCN(C)C)nc2-c2ccc(F)cc2)cc1Nc1ccc2ncn(C)c(=O)c2c1 — which class?
bottom
